target: T1, extracellular domain of rhesus monkey BCMA (rhesus monkey, UniProt F7FFA0 1-53); assay: Octet BLI; Fab 200 nM
T1 construct: extracellular domain; also called RhBCMA
T1 sequence (F7FFA0 entry or part of it): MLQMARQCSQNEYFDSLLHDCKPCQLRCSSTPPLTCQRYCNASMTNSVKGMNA
Measured property: kon (M⁻¹ s⁻¹)
Numbers only, in M⁻¹ s⁻¹.

Below are worked cases with known answers.
Binder	Readout unit	kon
AB200_Fab + D99S (Fab, name in Kabat numbering, V domains shown) VH: QVQLVQSGAEVKKPGSSVKVSCKASGGTFSNYWMHWVRQAPGQGLEWMGATYRGHSDTYYNQKFKGRVTITADKSTSTAYMELSSLRSEDTAVYYCARGAIYSGYDVLDNWGQGTLVTVSS VL: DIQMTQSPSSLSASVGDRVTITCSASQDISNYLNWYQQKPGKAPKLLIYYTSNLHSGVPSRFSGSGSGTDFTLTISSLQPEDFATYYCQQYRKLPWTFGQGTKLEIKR	M⁻¹ s⁻¹	120000
AB200_Fab + D99Q (Fab, name in Kabat numbering, V domains shown) VH: QVQLVQSGAEVKKPGSSVKVSCKASGGTFSNYWMHWVRQAPGQGLEWMGATYRGHSDTYYNQKFKGRVTITADKSTSTAYMELSSLRSEDTAVYYCARGAIYQGYDVLDNWGQGTLVTVSS VL: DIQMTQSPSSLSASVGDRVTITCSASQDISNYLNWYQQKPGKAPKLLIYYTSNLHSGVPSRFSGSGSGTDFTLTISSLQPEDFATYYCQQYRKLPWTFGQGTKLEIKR	M⁻¹ s⁻¹	180000

I'm hoping you can list kon for every binder here, please.
1. AB200_Fab + D99E (Fab, name in Kabat numbering, V domains shown) VH: QVQLVQSGAEVKKPGSSVKVSCKASGGTFSNYWMHWVRQAPGQGLEWMGATYRGHSDTYYNQKFKGRVTITADKSTSTAYMELSSLRSEDTAVYYCARGAIYEGYDVLDNWGQGTLVTVSS VL: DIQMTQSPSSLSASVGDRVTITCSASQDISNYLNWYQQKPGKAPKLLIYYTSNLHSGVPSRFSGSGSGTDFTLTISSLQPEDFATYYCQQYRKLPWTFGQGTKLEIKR
2. AB200_Fab (D99D) (Fab, V domains shown) VH: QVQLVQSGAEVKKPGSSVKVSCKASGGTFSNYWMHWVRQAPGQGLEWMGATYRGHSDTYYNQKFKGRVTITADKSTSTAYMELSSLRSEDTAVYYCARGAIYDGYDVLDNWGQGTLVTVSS VL: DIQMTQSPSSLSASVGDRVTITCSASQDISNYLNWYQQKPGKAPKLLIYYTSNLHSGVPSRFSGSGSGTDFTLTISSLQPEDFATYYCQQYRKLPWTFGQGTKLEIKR
3. AB200_Fab + D99N (Fab, name in Kabat numbering, V domains shown, also called D99N variant) VH: QVQLVQSGAEVKKPGSSVKVSCKASGGTFSNYWMHWVRQAPGQGLEWMGATYRGHSDTYYNQKFKGRVTITADKSTSTAYMELSSLRSEDTAVYYCARGAIYNGYDVLDNWGQGTLVTVSS VL: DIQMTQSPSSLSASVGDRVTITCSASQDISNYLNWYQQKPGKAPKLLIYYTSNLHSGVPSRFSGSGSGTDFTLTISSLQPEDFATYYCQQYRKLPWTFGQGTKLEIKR
4. AB200_Fab + D99H (Fab, V domains shown, also called AB200_D99H; D99H variant) VH: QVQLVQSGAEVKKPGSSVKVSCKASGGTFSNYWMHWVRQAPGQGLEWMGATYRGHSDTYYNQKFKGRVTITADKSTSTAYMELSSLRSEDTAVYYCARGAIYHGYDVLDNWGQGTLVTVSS VL: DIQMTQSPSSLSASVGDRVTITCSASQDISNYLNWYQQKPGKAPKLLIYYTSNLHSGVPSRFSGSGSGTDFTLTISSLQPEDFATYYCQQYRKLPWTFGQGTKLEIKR
5. AB200_Fab + D99T (Fab, name in Kabat numbering, V domains shown) VH: QVQLVQSGAEVKKPGSSVKVSCKASGGTFSNYWMHWVRQAPGQGLEWMGATYRGHSDTYYNQKFKGRVTITADKSTSTAYMELSSLRSEDTAVYYCARGAIYTGYDVLDNWGQGTLVTVSS VL: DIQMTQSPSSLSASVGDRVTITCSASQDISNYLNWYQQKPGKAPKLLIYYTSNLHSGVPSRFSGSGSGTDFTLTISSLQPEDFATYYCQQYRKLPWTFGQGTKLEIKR

[160000, 200000, 200000, 180000, 90000]

From: patent US20240327535A1
